Item-by-item account of GI50
system: OVCAR3 cells; experiment: MTT proliferation assay, OVCAR3; type: cell-based; settings: 5 days compound exposure, 1:3 serial dilution starting at 10 μM
*1 amine or outer side, *2 acyl side, *3 side chain or, on linkers, in order; H or OH if unused. Where a SMILES comes first, the peptide text is derived from it. Bridges are numbered along the chain shown (N, C = ends). [ ]: non-standard residue; d: D form. The star is where a group is joined. X126 = CC(C)C(=O)N1[C@H]2COC[C@@H]1C=C(c1ccc(F)cc1C[C@@H](C(=O)[*:2])N(C)[*:1])C2; NMePhe(2-(4-MorPh),5-Cl) = CN[C@@H](Cc1cc(Cl)ccc1-c1ccc(N2CCOCC2)cc1)C(=O)O; X56 = CN1CCc2cc(-c3ccc(Cl)cc3C[C@@H](C(=O)[*:2])N(C)[*:1])ccc2C1; NMehhhLys(Me) = CN([C@@H](CCCCCCCN(C)[*:3])C(=O)[*:2])[*:1]; X139 = Cc1[nH]ncc1-c1ccc(Cl)cc1C[C@@H](C(=O)[*:2])N(C)[*:1]; X135 = CN([C@@H](Cc1cc(Cl)ccc1-c1cn(C)cn1)C(=O)[*:2])[*:1]; NMe(hhhLys) = CN([C@@H](CCCCCCCN[*:3])C(=O)[*:2])[*:1]; cBuCO(3,3-F2-1-CF3) = O=C(C1(C(F)(F)F)CC(F)(F)C1)*; X4 = Cc1ccc(Cl)cc1C[C@@H](C(=O)[*:2])N(C)[*:1]; Pro(trans-4-F) = O=C(O)[C@@H]1C[C@@H](F)CN1; Gly(cPr) = N[C@H](C(=O)O)C1CC1; X102 = C[C@]1(C(=O)*)CC1(F)F
QUANTITY_MEASURED: GI50 (nM)

INSERT INTO assay_data (molecule, quantity_measured, display_unit, test_value) VALUES
  ('Cc1ccc(Cl)cc1C[C@H]1C(=O)NCCCCCCC[C@H](N(C)C(=O)[C@@H](NC(=O)[C@@H]2C[C@@H](F)CN2C(=O)C2(C(F)(F)F)CC(F)(F)C2)C2CC2)C(=O)N[C@@H](CC(C)C)C(=O)N1C [Example 270] ({cBuCO(3,3-F2-1-CF3)}-[Pro(trans-4-F)][Gly(cPr)][NMe(hhhLys)]L[X4]; lactam 3-C)', 'GI50', 'nM', 70),
  ('CC(C)C[C@@H]1NC(=O)[C@@H](N(C)C(=O)[C@@H](NC(=O)[C@@H]2C[C@@H](F)CN2C(=O)C2(C(F)(F)F)CC(F)(F)C2)C2CC2)CCCCCCCN(C)C(=O)[C@H](Cc2cc(Cl)ccc2-c2ccc3c(c2)CCN(C)C3)N(C)C1=O [Example 407] ({cBuCO(3,3-F2-1-CF3)}-[Pro(trans-4-F)][Gly(cPr)][NMehhhLys(Me)]L[X56]; lactam 3-C)', 'GI50', 'nM', 20),
  ('CC(C)C[C@@H]1NC(=O)[C@@H](N(C)C(=O)[C@@H](NC(=O)[C@@H]2C[C@@H](F)CN2C(=O)C2(C(F)(F)F)CC(F)(F)C2)C2CC2)CCCCCCCN(C)C(=O)[C@H](Cc2cc(Cl)ccc2-c2cn(C)cn2)N(C)C1=O [Example 242] ({cBuCO(3,3-F2-1-CF3)}-[Pro(trans-4-F)][Gly(cPr)][NMehhhLys(Me)]L[X135]; lactam 3-C)', 'GI50', 'nM', 20),
  ('Cc1[nH]ncc1-c1ccc(Cl)cc1C[C@H]1C(=O)N(C)CCCCCCC[C@H](N(C)C(=O)[C@@H](NC(=O)[C@@H]2C[C@@H](F)CN2C(=O)C2(C(F)(F)F)CC(F)(F)C2)C2CC2)C(=O)N[C@@H](CC(C)C)C(=O)N1C [Example 211] ({cBuCO(3,3-F2-1-CF3)}-[Pro(trans-4-F)][Gly(cPr)][NMehhhLys(Me)]L[X139]; lactam 3-C)', 'GI50', 'nM', 30),
  ('CC(C)C[C@@H]1NC(=O)[C@@H](N(C)C(=O)[C@@H](NC(=O)[C@@H]2C[C@@H](F)CN2C(=O)C2(C(F)(F)F)CC(F)(F)C2)C2CC2)CCCCCCCNC(=O)[C@H](Cc2cc(F)ccc2C2=C[C@H]3COC[C@@H](C2)N3C(=O)C(C)C)N(C)C1=O [Example 326] ({cBuCO(3,3-F2-1-CF3)}-[Pro(trans-4-F)][Gly(cPr)][NMe(hhhLys)]L[X126]; lactam 3-C)', 'GI50', 'nM', 10),
  ('CC(C)C[C@@H]1NC(=O)[C@@H](N(C)C(=O)[C@@H](NC(=O)[C@@H]2C[C@@H](F)CN2C(=O)[C@@]2(C)CC2(F)F)C2CC2)CCCCCCCN(C)C(=O)[C@H](Cc2cc(Cl)ccc2-c2ccc(N3CCOCC3)cc2)N(C)C1=O [Example 400] (X102-[Pro(trans-4-F)][Gly(cPr)][NMehhhLys(Me)]L[NMePhe(2-(4-MorPh),5-Cl)]; lactam 3-C)', 'GI50', 'nM', 10);

* * *

Below, each entry is listed with its recorded log10 GI50.
system: OVCAR3 cells; experiment: MTT proliferation assay, OVCAR3; assay type: cell-based; settings: 5 days compound exposure, 1:3 serial dilution starting at 10 μM;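 note: compound given as an 8- or 10-point series, one day after plating, with exposure covering roughly 3-4 cell doublings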
*1 amine or outer side, *2 acyl side, *3 side chain or, on linkers, in order; H or OH if unused. Where a SMILES comes first, the peptide text is derived from it. Bridges are numbered along the chain shown (N, C = ends). [ ]: non-standard residue; d: D form. The star is where a group is joined. NMePhe(2-(4-MorPh),5-Cl) = CN[C@@H](Cc1cc(Cl)ccc1-c1ccc(N2CCOCC2)cc1)C(=O)O; X202 = CN([C@@H](Cc1cc(Cl)ccc1-c1ccc(N2CCN(CC(F)F)CC2)cc1)C(=O)[*:2])[*:1]; X71 = CN([C@@H](Cc1cc(Cl)ccc1-c1ccc(N2CCOCC2)c(F)c1)C(=O)[*:2])[*:1]; NMePhe(5-Cl,2-O(2-Pym)) = CN[C@@H](Cc1cc(Cl)ccc1Oc1ncccn1)C(=O)O; X113 = Cc1cc(-c2ccc(Cl)cc2C[C@@H](C(=O)[*:2])N(C)[*:1])n(C)n1; NMe3Pal(2-OiBu,5-Cl) = CN[C@@H](Cc1cc(Cl)cnc1OCC(C)C)C(=O)O; NMehhhLys(Me) = CN([C@@H](CCCCCCCN(C)[*:3])C(=O)[*:2])[*:1]; NMe3Pal(2-OiPr,5-Cl) = CN[C@@H](Cc1cc(Cl)cnc1OC(C)C)C(=O)O; X44 = Cc1nnc(-c2ccc(Cl)cc2C[C@@H](C(=O)[*:2])N(C)[*:1])o1; NMe(hhhLys) = CN([C@@H](CCCCCCCN[*:3])C(=O)[*:2])[*:1]; NMe3Pal(2-OMe,5-Cl) = CN[C@@H](Cc1cc(Cl)cnc1OC)C(=O)O; Oxane2carbonyl(2R-CF3) = O=C([C@@]1(C(F)(F)F)CCCCO1)*; Cyclobutanecarbonyl(1-CF3) = O=C(C1(C(F)(F)F)CCC1)*; cBuCO(3,3-F2-1-CF3) = O=C(C1(C(F)(F)F)CC(F)(F)C1)*; Pro(trans-4-F) = O=C(O)[C@@H]1C[C@@H](F)CN1; Pivaloyl(3,3,3-F3) = CC(C)(C(=O)*)C(F)(F)F; Gly(cPr) = N[C@H](C(=O)O)C1CC1
QUANTITY_MEASURED: log10 GI50 (log10 of the value in nM)

INSERT INTO results (compound, tested_system, test_value) VALUES
  ('CC(C)COc1ncc(Cl)cc1C[C@H]1C(=O)N(C)CCCCCCC[C@H](N(C)C(=O)[C@@H](NC(=O)[C@@H]2C[C@@H](F)CN2C(=O)C2(C(F)(F)F)CCC2)C2CC2)C(=O)N[C@@H](CC(C)C)C(=O)N1C [Example 230] ({Cyclobutanecarbonyl(1-CF3)}-[Pro(trans-4-F)][Gly(cPr)][NMehhhLys(Me)]L[NMe3Pal(2-OiBu,5-Cl)]; lactam 3-C)', 'OVCAR3 cells', 1.95),
  ('CC(C)C[C@@H]1NC(=O)[C@@H](N(C)C(=O)[C@@H](NC(=O)[C@@H]2C[C@@H](F)CN2C(=O)C2(C(F)(F)F)CC(F)(F)C2)C2CC2)CCCCCCCN(C)C(=O)[C@H](Cc2cc(Cl)ccc2Oc2ncccn2)N(C)C1=O [Example 155] ({cBuCO(3,3-F2-1-CF3)}-[Pro(trans-4-F)][Gly(cPr)][NMehhhLys(Me)]L[NMePhe(5-Cl,2-O(2-Pym))]; lactam 3-C)', 'OVCAR3 cells', 1.30),
  ('Cc1cc(-c2ccc(Cl)cc2C[C@H]2C(=O)N(C)CCCCCCC[C@H](N(C)C(=O)[C@@H](NC(=O)[C@@H]3C[C@@H](F)CN3C(=O)C3(C(F)(F)F)CC(F)(F)C3)C3CC3)C(=O)N[C@@H](CC(C)C)C(=O)N2C)n(C)n1 [Example 235] ({cBuCO(3,3-F2-1-CF3)}-[Pro(trans-4-F)][Gly(cPr)][NMehhhLys(Me)]L[X113]; lactam 3-C)', 'OVCAR3 cells', 1.95),
  ('CC(C)C[C@@H]1NC(=O)[C@@H](NC(=O)[C@@H](NC(=O)[C@@H]2C[C@@H](F)CN2C(=O)C2(C(F)(F)F)CC(F)(F)C2)C2CC2)CC=CCCCCNC(=O)[C@H](Cc2cc(Cl)ccc2Cl)N(C)C1=O [Example 4]', 'OVCAR3 cells', 1.78),
  ('CC(C)C[C@@H]1NC(=O)[C@@H](N(C)C(=O)[C@@H](NC(=O)[C@@H]2C[C@@H](F)CN2C(=O)C2(C(F)(F)F)CC(F)(F)C2)C2CC2)CCCCCCCN(C)C(=O)[C@H](Cc2cc(Cl)ccc2-c2ccc(N3CCN(CC(F)F)CC3)cc2)N(C)C1=O [Example 352] ({cBuCO(3,3-F2-1-CF3)}-[Pro(trans-4-F)][Gly(cPr)][NMehhhLys(Me)]L[X202]; lactam 3-C)', 'OVCAR3 cells', 1.00),
  ('CC(C)C[C@@H]1NC(=O)[C@@H](N(C)C(=O)[C@@H](NC(=O)[C@@H]2C[C@@H](F)CN2C(=O)C2(C(F)(F)F)CC(F)(F)C2)C2CC2)CCCCCCCNC(=O)[C@H](Cc2cc(Cl)cnc2OC(C)C)N(C)C1=O [Example 131] ({cBuCO(3,3-F2-1-CF3)}-[Pro(trans-4-F)][Gly(cPr)][NMe(hhhLys)]L[NMe3Pal(2-OiPr,5-Cl)]; lactam 3-C)', 'OVCAR3 cells', 2.60),
  ('COc1ncc(Cl)cc1C[C@H]1C(=O)NCCCCCCC[C@H](N(C)C(=O)[C@@H](NC(=O)[C@@H]2C[C@@H](F)CN2C(=O)[C@@]2(C(F)(F)F)CCCCO2)C2CC2)C(=O)N[C@@H](CC(C)C)C(=O)N1C [Example 274] ({Oxane2carbonyl(2R-CF3)}-[Pro(trans-4-F)][Gly(cPr)][NMe(hhhLys)]L[NMe3Pal(2-OMe,5-Cl)]; lactam 3-C)', 'OVCAR3 cells', 1.00),
  ('CC(C)C[C@@H]1NC(=O)[C@@H](N(C)C(=O)[C@@H](NC(=O)[C@@H]2C[C@@H](F)CN2C(=O)C(C)(C)C(F)(F)F)C2CC2)CCCCCCCN(C)C(=O)[C@H](Cc2cc(Cl)ccc2-c2ccc(N3CCOCC3)cc2)N(C)C1=O [Example 335] ({Pivaloyl(3,3,3-F3)}-[Pro(trans-4-F)][Gly(cPr)][NMehhhLys(Me)]L[NMePhe(2-(4-MorPh),5-Cl)]; lactam 3-C)', 'OVCAR3 cells', 1.00),
  ('CC(C)C[C@@H]1NC(=O)[C@@H](N(C)C(=O)[C@@H](NC(=O)[C@@H]2C[C@@H](F)CN2C(=O)C2(C(F)(F)F)CC(F)(F)C2)C2CC2)CCCCCCCN(C)C(=O)[C@H](Cc2cc(Cl)ccc2-c2ccc(N3CCOCC3)c(F)c2)N(C)C1=O [Example 348] ({cBuCO(3,3-F2-1-CF3)}-[Pro(trans-4-F)][Gly(cPr)][NMehhhLys(Me)]L[X71]; lactam 3-C)', 'OVCAR3 cells', 1.00),
  ('COCCn1cc(-c2ccc(Cl)cc2C[C@H]2C(=O)N(C)CCCCC=CC[C@H](N(C)C(=O)[C@@H](NC(=O)[C@@H]3C[C@@H](F)CN3C(=O)C3(C(F)(F)F)CC(F)(F)C3)C3CC3)C(=O)N[C@@H](CC(C)C)C(=O)N2C)cn1 [Example 44]', 'OVCAR3 cells', 1.60),
  ('Cc1nnc(-c2ccc(Cl)cc2C[C@H]2C(=O)NCCCCCCC[C@H](N(C)C(=O)[C@@H](NC(=O)[C@@H]3C[C@@H](F)CN3C(=O)C3(C(F)(F)F)CCC3)C3CC3)C(=O)N[C@@H](CC(C)C)C(=O)N2C)o1 [Example 161] ({Cyclobutanecarbonyl(1-CF3)}-[Pro(trans-4-F)][Gly(cPr)][NMe(hhhLys)]L[X44]; lactam 3-C)', 'OVCAR3 cells', 1.30),
  ('CC(=O)N1CC=C(c2ccc(Cl)cc2C[C@H]2C(=O)NCCCCC=CC[C@H](N(C)C(=O)[C@@H](NC(=O)[C@@H]3C[C@@H](F)CN3C(=O)C3(C(F)(F)F)CC(F)(F)C3)C3CC3)C(=O)N[C@@H](CC(C)C)C(=O)N2C)CC1 [Example 18]', 'OVCAR3 cells', 2.53);

Origin of the recorded values: patent US20240408169A1
